Test system: PA14 4.18 (pmrB)
Assay: microbe, parasite or virus in culture
Conditions: supplementary CSV
Assay endpoint: MIC P. aeruginosa PA14 4.18 (µg/mL)
# output: bare number, implied unit µg/mL

Known MIC P. aeruginosa PA14 4.18 results, listed for orientation:
- Smiles: "CC(C)C[C@H](NC(=O)[C@H](CC(C)C)NC(=O)[C@H](CC(C)C)NC(=O)[C@H](CCCCN)NC(=O)[C@H](CC(C)C)NC(=O)[C@H](CC(C)C)NC(=O)[C@H](CCCCN)NC(=O)[C@H](CC(C)C)NC(=O)[C@H](CC(C)C)NC(=O)[C@@H](CCCCN)NC(=O)[C@H](N)CCCCN)C(N)=O"
  Assay endpoint: "MIC P. aeruginosa PA14 4.18"
  Obs value: 32
- Smiles: "CC(C)C[C@H](NC(=O)[C@H](CC(C)C)NC(=O)[C@H](CC(C)C)NC(=O)[C@H](CCCCN)NC(=O)[C@H](CC(C)C)NC(=O)[C@H](CC(C)C)NC(=O)[C@@H](CCCCN)NC(=O)[C@H](CC(C)C)NC(=O)[C@H](CC(C)C)NC(=O)[C@@H](CCCCN)NC(=O)[C@@H](N)CCCCN)C(N)=O"
  Assay endpoint: "MIC P. aeruginosa PA14 4.18"
  Obs value: 32
- Smiles: "CC(C)C[C@H](NC(=O)[C@H](CC(C)C)NC(=O)[C@H](CC(C)C)NC(=O)[C@H](CCCCN)NC(=O)[C@@H](CC(C)C)NC(=O)[C@H](CC(C)C)NC(=O)[C@H](CCCCN)NC(=O)[C@@H](CC(C)C)NC(=O)[C@@H](CC(C)C)NC(=O)[C@@H](CCCCN)NC(=O)[C@@H](N)CCCCN)C(N)=O"
  Assay endpoint: "MIC P. aeruginosa PA14 4.18"
  Obs value: 8
- Smiles: "CC(C)C[C@H](NC(=O)[C@H](CC(C)C)NC(=O)[C@H](CC(C)C)NC(=O)[C@H](CCCCN)NC(=O)[C@H](CC(C)C)NC(=O)[C@H](CC(C)C)NC(=O)[C@H](CCCCN)NC(=O)[C@H](CC(C)C)NC(=O)[C@H](CC(C)C)NC(=O)[C@@H](CCCCN)NC(=O)[C@@H](N)CCCCN)C(N)=O"
  Assay endpoint: "MIC P. aeruginosa PA14 4.18"
  Obs value: 32

Notebook: pull reported MIC P. aeruginosa PA14 4.18 for PA14 4.18 (pmrB), entry `CC(C)C[C@H](NC(=O)[C@H](CC(C)C)NC(=O)[C@H](CC(C)C)NC(=O)[C@H](CCCCN)NC(=O)[C@H](CC(C)C)NC(=O)[C@H](CC(C)C)NC(=O)[C@H](CCCCN)NC(=O)[C@@H](CC(C)C)NC(=O)[C@H](CC(C)C)NC(=O)[C@@H](CCCCN)NC(=O)[C@@H](N)CCCCN)C(N)=O`
32

Lab request: please report MIC P. aeruginosa PA14 4.18 under test system PA14 4.18 (pmrB) for `CC(C)C[C@H](NC(=O)[C@H](CC(C)C)NC(=O)[C@H](CC(C)C)NC(=O)[C@H](CCCCN)NC(=O)[C@H](CC(C)C)NC(=O)[C@H](CC(C)C)NC(=O)[C@H](CCCCN)NC(=O)[C@H](CC(C)C)NC(=O)[C@H](CC(C)C)NC(=O)[C@H](CCCCN)NC(=O)[C@@H](N)CCCCN)C(N)=O`
32

What measured MIC P. aeruginosa PA14 4.18 is associated with `CC(C)C[C@H](NC(=O)[C@H](CC(C)C)NC(=O)[C@H](CC(C)C)NC(=O)[C@@H](CCCCN)NC(=O)[C@H](CC(C)C)NC(=O)[C@H](CC(C)C)NC(=O)[C@@H](CCCCN)NC(=O)[C@H](CC(C)C)NC(=O)[C@H](CC(C)C)NC(=O)[C@@H](CCCCN)NC(=O)[C@H](N)CCCCN)C(N)=O` on PA14 4.18 (pmrB)?
16
